The origin of these recorded values is ChEMBL document CHEMBL1201862.

Assay target: Sentrin-specific protease 8 (Homo sapiens, UniProt Q96LD8)
Sequence (Q96LD8 whole entry): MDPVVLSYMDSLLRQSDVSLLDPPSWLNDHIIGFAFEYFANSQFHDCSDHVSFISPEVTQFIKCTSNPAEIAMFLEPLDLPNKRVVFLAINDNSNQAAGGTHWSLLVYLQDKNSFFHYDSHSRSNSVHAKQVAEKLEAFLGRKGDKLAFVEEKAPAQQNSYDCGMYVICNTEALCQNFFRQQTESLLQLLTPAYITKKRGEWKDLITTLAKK
Type: functional
Active and inactive are the calls of the source.
Recorded IC50 values for a group of molecules are listed next.

Please review the entries below; each comes with its answer.
- Record smiles: "CCc1cc[n+](C2=C([N-]S(=O)(=O)c3cccs3)C(=O)c3ccccc3C2=O)cc1"
  IC50: "8.48 µM (active)"
- Record smiles: "Oc1c(-c2cc(-c3ccco3)[nH]n2)ccc2ccccc12"
  IC50: "19.3 µM (active)"
- Record smiles: "COc1ccccc1N(/N=C1\\Sc2ccccc2C1=O)C(C)=O"
  IC50: "5.39 µM (active)"

Using the record for CC(C)CSC1=NSC2=NC(=O)/C(=C\c3cccs3)C(=N)N12 , report its IC50.
18.5 µM (active)

# lookup: IC50 of O=C1C=C(Nc2ccc(F)cc2)c2ccccc2C1=O
4.81 µM (active)

Entry C/C(=N\NC(=O)c1ccc(Br)cc1)c1ccccc1 has what IC50?
> 100 µM (inactive)

Given O=C(COc1ccc2ccccc2c1)Nc1ccccc1C(=O)O , state its recorded IC50.
43.4 µM (active)

====

Below, each of the compounds is paired with its reported IC50 value.
Assay target: Sentrin-specific protease 7 (Homo sapiens, UniProt Q9BQF6);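 note: Luminescence-based dose-response confirmation of ultra-high-throughput screening hits, measuring inhibition of SENP7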
Sequence (Q9BQF6 whole entry): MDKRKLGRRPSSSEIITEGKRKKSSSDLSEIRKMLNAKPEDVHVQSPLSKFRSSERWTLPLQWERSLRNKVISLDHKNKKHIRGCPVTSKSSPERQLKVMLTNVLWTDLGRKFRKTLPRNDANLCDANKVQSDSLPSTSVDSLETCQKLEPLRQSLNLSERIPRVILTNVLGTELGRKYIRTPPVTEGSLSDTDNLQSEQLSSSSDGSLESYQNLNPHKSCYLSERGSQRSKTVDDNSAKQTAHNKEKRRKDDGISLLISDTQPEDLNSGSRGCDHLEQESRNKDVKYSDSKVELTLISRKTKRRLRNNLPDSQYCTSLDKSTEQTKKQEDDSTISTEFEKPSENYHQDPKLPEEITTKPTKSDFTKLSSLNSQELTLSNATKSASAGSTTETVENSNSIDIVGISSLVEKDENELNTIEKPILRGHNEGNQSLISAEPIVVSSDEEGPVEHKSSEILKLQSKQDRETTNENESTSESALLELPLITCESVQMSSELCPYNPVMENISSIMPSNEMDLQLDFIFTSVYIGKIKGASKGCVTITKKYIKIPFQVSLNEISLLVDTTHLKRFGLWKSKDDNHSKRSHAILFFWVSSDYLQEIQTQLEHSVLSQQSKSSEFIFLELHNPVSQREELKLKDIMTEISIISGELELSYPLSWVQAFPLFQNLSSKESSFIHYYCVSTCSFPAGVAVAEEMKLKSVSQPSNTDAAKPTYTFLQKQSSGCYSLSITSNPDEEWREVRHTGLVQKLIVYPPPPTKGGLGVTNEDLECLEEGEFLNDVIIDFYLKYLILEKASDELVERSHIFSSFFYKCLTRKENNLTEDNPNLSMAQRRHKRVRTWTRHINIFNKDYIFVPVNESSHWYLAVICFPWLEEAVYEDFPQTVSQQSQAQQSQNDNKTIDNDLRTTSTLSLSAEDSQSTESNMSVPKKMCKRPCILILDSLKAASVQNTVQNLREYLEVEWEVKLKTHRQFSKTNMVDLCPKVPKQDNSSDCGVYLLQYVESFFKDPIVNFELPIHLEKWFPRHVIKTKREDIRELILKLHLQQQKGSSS
Assay type: functional
Active and inactive are the calls of the source.

- Record smiles: "O=C(COc1ccc2ccccc2c1)Nc1ccccc1C(=O)O"
  Experimental result: "13.4 µM (active)"
- Record smiles: "CC(C)CSC1=NSC2=NC(=O)/C(=C\\c3cccs3)C(=N)N12"
  Experimental result: "24.2 µM (active)"
- Record smiles: "Oc1c(-c2cc(-c3ccco3)[nH]n2)ccc2ccccc12"
  Experimental result: "4.87 µM (active)"
- Record smiles: "COc1ccccc1N(/N=C1\\Sc2ccccc2C1=O)C(C)=O"
  Experimental result: "6.78 µM (active)"
- Record smiles: "O=C1C=C(Nc2ccc(F)cc2)c2ccccc2C1=O"
  Experimental result: "9.46 µM (active)"

Bench note: what IC50 did CCc1cc[n+](C2=C([N-]S(=O)(=O)c3cccs3)C(=O)c3ccccc3C2=O)cc1 show?
8.3 µM (active)

If you can, please state the reported IC50 value of C/C(=N\NC(=O)c1ccc(Br)cc1)c1ccccc1 .
4.62 µM (active)

====

Here, each record is paired with measured IC50 data.
Assay target: Large T antigen (Simian virus 40);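 note: Confirmatory-stage PubChem screen for compounds that inhibit SV40 T antigen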
Sequence (P03070 whole entry): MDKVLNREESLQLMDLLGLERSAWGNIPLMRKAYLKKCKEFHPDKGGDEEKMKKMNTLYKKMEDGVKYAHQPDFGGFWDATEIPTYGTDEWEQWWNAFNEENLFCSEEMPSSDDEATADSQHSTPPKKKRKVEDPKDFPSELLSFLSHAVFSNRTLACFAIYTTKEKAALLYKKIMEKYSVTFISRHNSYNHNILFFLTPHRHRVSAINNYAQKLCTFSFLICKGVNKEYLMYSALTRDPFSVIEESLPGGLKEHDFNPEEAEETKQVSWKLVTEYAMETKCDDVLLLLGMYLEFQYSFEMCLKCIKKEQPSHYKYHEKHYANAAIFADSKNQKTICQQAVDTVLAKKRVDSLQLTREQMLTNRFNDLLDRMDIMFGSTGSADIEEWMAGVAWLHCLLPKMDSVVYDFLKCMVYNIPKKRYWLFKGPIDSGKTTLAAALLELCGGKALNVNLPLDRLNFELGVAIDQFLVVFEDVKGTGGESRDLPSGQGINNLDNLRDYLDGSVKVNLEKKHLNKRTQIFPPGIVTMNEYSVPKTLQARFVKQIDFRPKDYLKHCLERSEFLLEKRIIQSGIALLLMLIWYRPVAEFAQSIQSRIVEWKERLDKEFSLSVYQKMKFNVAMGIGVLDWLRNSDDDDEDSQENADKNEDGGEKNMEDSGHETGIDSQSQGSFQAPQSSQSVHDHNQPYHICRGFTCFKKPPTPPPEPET
Format: functional, Betapolyomavirus macacae
Activity calls are given as the source filed them.

Entry COc1ccc(/C=N/NC(=O)c2cc(O)c(O)c(O)c2)cc1Cn1cc([N+](=O)[O-])cn1 : reported IC50 = ?
0.99 µM (active)

Which measured IC50 value corresponds to O=C(O)c1ccccc1C(=O)NC1=NN(c2ccccc2)CC1 ?
14.2 µM (active)

Recorded IC50 of O=c1cc(-c2ccc(O)c(O)c2)oc2cc(O)c(C3OC(CO)C(O)C(O)C3O)c(O)c12 (stereo not given) , please.
5.23 µM (active)

Please report the recorded IC50 for Cc1ccnc(-n2sc3ccccc3c2=O)n1 .
12.5 µM (active)

Can you share its IC50? I mean this compound: CCN(CC)S(=O)(=O)c1ccc(N/N=C/c2ccc(O)cc2)nc1
11.5 µM (active)

====

Below, each entry is listed with its recorded AC50.
Assay target: Heat shock protein HSP 90-alpha (Homo sapiens)
Format: functional, organism-based
Activity calls are given as the source filed them.

Answered examples (4):
- Molecule: "Cc1cccc(NC(S)=NCC23C=CC(O2)C2C(=O)N(c4ccc(Cl)cc4)C(=O)C23)c1 (stereo unspecified)"
  AC50: "15 µM (active)"
- Molecule: "CCCOc1ccc2ccccc2c1/C=C1\\SC(=O)NC1=O"
  AC50: "6.89 µM (active)"
- Molecule: "OC(Cn1cncn1)(c1ccc(F)cc1)c1ccc(Cl)cc1 (stereo unspecified)"
  AC50: "< 0.195 µM (active)"
- Molecule: "Cc1cc(/C=C/c2ccc3cc(N(C)C)ccc3[n+]2C)c(C)n1-c1ccccc1"
  AC50: "5.91 µM (active)"

For the molecule shown here, CC(C)C(=O)NC(c1cccc([N+](=O)[O-])c1)c1ccc2cccnc2c1O (stereo unspecified) , give the reported AC50.
2.7 µM (active)

AC50 lookup needed for CCCCCCCC/C=C\CCCCCCCC(=O)NCCO [OLEOYLETHANOLAMIDE] , thanks.
7.67 µM (active)

====

Assay target: Sentrin-specific protease 8 (Homo sapiens, UniProt Q96LD8)
Sequence (Q96LD8 whole entry): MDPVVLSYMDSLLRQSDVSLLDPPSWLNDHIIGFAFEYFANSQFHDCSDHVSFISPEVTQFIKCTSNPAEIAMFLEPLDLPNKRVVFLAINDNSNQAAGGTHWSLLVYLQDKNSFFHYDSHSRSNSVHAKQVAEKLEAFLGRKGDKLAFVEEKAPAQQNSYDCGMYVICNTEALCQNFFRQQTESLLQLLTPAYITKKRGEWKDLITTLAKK
Format: functional
The source made the active and inactive calls.
Form field: IC50 (one value per entry).

# annotated cases, reported IC50 shown
- Record smiles: "CN(CCO)c1cc(Sc2nc3ccccc3s2)c2nonc2c1[N+](=O)[O-]"
  IC50: "18.8 µM (active)"
- Record smiles: "CC(C)(C)c1ccc(C(=O)NNc2cc(N3CCCCC3)nc(N3CCCCC3)n2)cc1"
  IC50: "0.384 µM (active)"
- Record smiles: "CCOc1ccc(C(c2c(C)n[nH]c2O)c2c(C)n[nH]c2O)cc1OC"
  IC50: "43.6 µM (active)"

Next molecule, please.
Sample CC(=O)NN1C(=O)c2ccc3c4c(ccc(c24)C1=O)C(=O)N(NC(C)=O)C3=O — what was its IC50?
0.445 µM (active)

====

Assay target: Short transient receptor potential channel 4 (Mus musculus)
Sequence (Q9QUQ5 whole entry): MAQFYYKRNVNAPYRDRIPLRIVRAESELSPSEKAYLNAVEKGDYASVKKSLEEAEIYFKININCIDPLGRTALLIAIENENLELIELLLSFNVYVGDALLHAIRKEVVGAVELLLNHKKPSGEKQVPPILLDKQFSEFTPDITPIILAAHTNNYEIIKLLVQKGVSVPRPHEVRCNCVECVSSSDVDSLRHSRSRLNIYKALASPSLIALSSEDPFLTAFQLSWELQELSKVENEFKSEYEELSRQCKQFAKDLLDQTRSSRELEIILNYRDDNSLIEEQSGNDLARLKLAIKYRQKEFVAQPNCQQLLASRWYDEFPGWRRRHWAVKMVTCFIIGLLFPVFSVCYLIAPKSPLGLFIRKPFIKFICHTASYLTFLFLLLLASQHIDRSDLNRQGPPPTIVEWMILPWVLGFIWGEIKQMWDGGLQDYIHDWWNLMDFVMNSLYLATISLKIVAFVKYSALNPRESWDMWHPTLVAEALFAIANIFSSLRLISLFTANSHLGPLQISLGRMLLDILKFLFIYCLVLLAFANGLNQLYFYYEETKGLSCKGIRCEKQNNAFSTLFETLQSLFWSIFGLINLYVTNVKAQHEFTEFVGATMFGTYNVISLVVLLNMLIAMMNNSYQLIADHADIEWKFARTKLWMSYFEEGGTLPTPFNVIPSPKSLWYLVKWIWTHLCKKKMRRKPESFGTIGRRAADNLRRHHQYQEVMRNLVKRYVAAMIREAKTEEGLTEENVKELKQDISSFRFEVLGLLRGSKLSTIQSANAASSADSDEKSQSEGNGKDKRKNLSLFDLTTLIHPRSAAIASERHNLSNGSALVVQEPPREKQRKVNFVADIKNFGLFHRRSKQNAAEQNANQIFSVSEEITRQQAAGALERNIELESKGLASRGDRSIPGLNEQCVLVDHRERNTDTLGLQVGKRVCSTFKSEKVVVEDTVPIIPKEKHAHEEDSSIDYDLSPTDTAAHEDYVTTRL
Measurement notes: mouse TRPC4 channel inhibitors, dose response, cell-based, HEK293 TRPC4/mu-opioid, Fluo-4 calcium (AID 434942);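 note: potency of inhibitors blocking the TRPC4 calcium response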
Assay type: functional
Activity calls are given as the source filed them.
Each item that follows carries a reported EC50.

- Record smiles: "CC(=O)Nc1ccc(S(=O)(=O)NC2=C(N3CCN(Cc4ccccc4)CC3)C(=O)c3ccccc3C2=O)cc1"
  Experimental result: "1060 nM (active)"

Report EC50 for CN1CCN(c2nc3c(c(=O)n(C)c(=O)n3C)n2CC(=O)C23CC4CC(CC(C4)C2)C3)CC1 please.
2110 nM (active)

# query: EC50 of entry CCOC(=O)C1(c2ccccc2)CCN(CC(=O)Nc2ccc(C)cc2)CC1
2990 nM (active)

Request the reported EC50 associated with O=C(CCCSc1nc2ccccc2[nH]1)NCc1ccccc1Cl
3760 nM (active)

Tell me the measured EC50 of O=C1Nc2cc(C(=O)NCCCN3CCOCC3)ccc2S/C1=C/c1ccccc1F , please.
2660 nM (active)
